The reported measurements were obtained from patent US4206207A.

assayInfo: Renal Toxicity Screening Protocol, toxicity compared to NSC-119875
Type: in vivo
protocolConditions: sum of the ten scores
property: TOTAL SCORE

> print(dat)
                                   compound  measuredresult
1  N[C@@H]1CCCC[C@H]1N.O=C([O-])c1ccc(C(=O)[O-])c(C(=O)[O-])c1.[H+].[Pt+2] [NSC-271674]              23
2  NC1CCCCC1N.O=S(=O)([O-])[O-].[Pt+2] (stereo not shown) [NSC-250427]              24
3  N.N.O=C([O-])C1(C(=O)[O-])CCC1.[Pt+2] [NSC-241240]              21

Enquiry: Quote TOTAL SCORE reported for CC(C)N.CC(C)N.[Cl-].[Cl-].[OH-].[OH-].[Pt] [NSC-256927] please.
Return: 25
